- System tested: HCV p7 ion channel protein (Hepatitis C virus genotype 1a, UniProt P27958)
- Construct: codons were optimised for expression of the p7 protein in E. coli; expressed in transfected cells; host or cells: E. coli carrying plasmid pPLp7 (pPL451 backbone, temperature-inducible)
- Sequence (P27958 747-809): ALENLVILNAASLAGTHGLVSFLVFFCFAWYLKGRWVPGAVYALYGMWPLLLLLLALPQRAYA
- Assay: Bacterial bioassay: growth of E. coli expressing HCV p7
- Format: cell-based
- Parameters: scale not given here
- Assay context: cumulative averaged scores; result above zero indicates potential anti-viral activity
true means recorded Average Bacterial Assay Score HCV p7 is 0.7 or above; false means it is below 0.7.

Solved entries:
• CC(=O)Nc1cccc(-c2cccc3cc(C(=O)NC(=N)N)ccc23)c1 [BIT318] = true
• N=C(N)NC(=O)c1ccc2c(-c3ccccc3)cccc2c1 [BIT307, (5-phenyl-2-napthoyl)guanidine] = false

[Q] Could you verify whether the entry COc1ccc2cc(C(=O)NC(=N)N)ccc2c1Br [BIT223, 5-bromo-6-methoxy-2-napthoylguanidine] shows Average Bacterial Assay Score HCV p7 of no less than 0.7?
[A] false

[Q] Could you verify whether the entry N=C(N)NC(=O)c1ccc2cc(-c3ccsc3)ccc2c1 [BIT305, (6-(3-thienyl)-2-napthoyl)guanidine] shows Average Bacterial Assay Score HCV p7 of no less than 0.7?
[A] false

[Q] Could you verify whether the entry N=C(N)NC(=O)C=Cc1cc(Br)ccc1F [BIT124, 5-bromo-2-fluorocinnamoylguanidine] shows Average Bacterial Assay Score HCV p7 of no less than 0.7?
[A] true

[Q] Could you verify whether the entry N=C(N)NC(=O)C=Cc1cccc(Br)c1 [BIT067, (3-Bromocinnamoyl)guanidine] shows Average Bacterial Assay Score HCV p7 of no less than 0.7?
[A] true

[Q] Could you verify whether the entry N=C(N)NC(=O)c1ccc2c(-c3cccs3)cccc2c1 [BIT308, (5-(thien-2-yl)-2-napthoyl)guanidine] shows Average Bacterial Assay Score HCV p7 of no less than 0.7?
[A] false

[Q] Could you verify whether the entry N=C(N)NC(=O)c1ccc2c(Br)cccc2c1 [BIT303, (5-bromo-2-napthoyl)guanidine] shows Average Bacterial Assay Score HCV p7 of no less than 0.7?
[A] false

====

- System tested: HCV p7 ion channel protein (Hepatitis C virus genotype 1a, UniProt P27958)
- Construct: codons were optimised for expression of the p7 protein in E. coli; expressed in transfected cells; host or cells: E. coli carrying plasmid pPLp7 (pPL451 backbone, temperature-inducible)
- Assay: Bacterial bioassay: growth of E. coli expressing HCV p7
- Format: cell-based
- Set-up: scale not given here
- Assay context: cumulative averaged scores; result above zero indicates potential anti-viral activity
T means recorded Average Bacterial Assay Score HCV p7 is 1 or above; F means it is below 1.

Solved entries:
* CC(C)Cn1cc(-c2cccc3cc(C(=O)NC(=N)N)ccc23)cn1 [BIT310] | F
* CS(=O)(=O)Nc1ccc(-c2cccc3cc(C(=O)NC(=N)N)ccc23)cc1 [BIT319] | F
* COc1cc2ccccc2cc1C(=O)NC(=N)N [BIT302, (3-methoxy-2-napthoyl)guanidine] | F
* N=C(N)NC(=O)c1ccc2c(Cl)cccc2c1 [BIT313, (5-chloro-2-napthoyl)guanidine] | T
* N=C(N)NC(=O)c1ccc2c(-c3ccoc3)cccc2c1 [BIT311, (5-(3-furyl)-2-napthoyl)guanidine] | F

[Q] Could you verify whether the entry Cn1cc(-c2cccc3cc(C(=O)NC(=N)N)ccc23)cn1 [BIT225] shows Average Bacterial Assay Score HCV p7 of no less than 1?
[A] T

[Q] Could you verify whether the entry Cc1ccc2cc(C(=O)NC(=N)N)ccc2c1 [BIT306, (6-methyl-2-napthoyl)guanidine] shows Average Bacterial Assay Score HCV p7 of no less than 1?
[A] F

[Q] Could you verify whether the entry CC(=O)O.Cn1cc(-c2ccc3cc(C(=O)NC(=N)N)ccc3c2)cn1 [BIT314] shows Average Bacterial Assay Score HCV p7 of no less than 1?
[A] T

====

- System: bovine viral diarrhea virus (BVDV) strain NADL
- Assay: BVDV CPE-inhibition assay in MDBK cells
- Format: cell-based
- Assay context: Bovine viral diarrhea virus isolates and strains, MDBK, in the presence of 5 IU/ml IFNα plus 1.25 μg/ml ribavirin; read-out: EC50
Result type: EC50 (nM)
Answer format: numeric, nM implied, no suffix.

[Q] Field request: EC50 | item: CC(=O)O.Cn1cc(-c2ccc3cc(C(=O)NC(=N)N)ccc3c2)cn1 [BIT314]
[A] 183

====

- System: bovine viral diarrhea virus (BVDV) strain NADL
- Assay: BVDV CPE-inhibition assay in MDBK cells
- Format: cell-based
- Assay context: drug alone, average of experiments; read-out: average EC50
Result type: EC50
I'd appreciate it if you wrote the number followed by its unit.

[Q] Field request: EC50 | item: CC(=O)O.Cn1cc(-c2ccc3cc(C(=O)NC(=N)N)ccc3c2)cn1 [BIT314]
[A] 380 nM
